# credit: paper PMC10287566

# procedure summary: Plasma pharmacokinetics/toxicokinetics in dogs (oral and i.v.)
# Type: in vivo
# conditions: both sexes, Beagle, dog, iv, dogs i.v. 0.7 mg/kg
property label: Tmax
Please provide the amount together with its unit, number first.

query: Query: Tmax; subject: `COc1ccc(CO[C@H]2CC[C@@]3(C)C(=CC[C@H]4[C@@H]5CC[C@H](C(C)=O)[C@@]5(C)CC[C@@H]43)C2)cc1`
result: 7.5 min

---

# procedure summary: MAD study, plasma pharmacokinetics
# Format: in vivo, human
# conditions: human, plasma, oral, 6 mg/day, MAD Day 7, 6 mg/day; read-out: Cmax, mean (±SD)
property label: Cmax (ng/mL)
One number for each entry, in ng/mL.

query: Query: Cmax; subject: COc1ccc(CO[C@H]2CC[C@@]3(C)C(=CC[C@H]4[C@@H]5CC[C@H](C(C)=O)[C@@]5(C)CC[C@@H]43)C2)cc1 [AEF0117, 3β-(4-methoxybenzyloxy)pregn-5-en-20-one]
result: 37.1

---

# procedure summary: Plasma and brain pharmacokinetics/toxicokinetics in rats
# Format: in vivo
# conditions: both sexes, Sprague Dawley SPF, rat, plasma; rats po 36 mg/kg single, 28-day tox study
property label: Tmax
Please provide the amount together with its unit, number first.

query: Query: Tmax; subject: `COc1ccc(CO[C@H]2CC[C@@]3(C)C(=CC[C@H]4[C@@H]5CC[C@H](C(C)=O)[C@@]5(C)CC[C@@H]43)C2)cc1`
result: 3 h

---

# procedure summary: Plasma and brain pharmacokinetics/toxicokinetics in rats
# Format: in vivo
# conditions: Sprague Dawley, rat, plasma; rats po 1.6 mg/kg single
property label: Tmax (h)
Answers are plain numbers, in h.

query: Query: Tmax; subject: `COc1ccc(CO[C@H]2CC[C@@]3(C)C(=CC[C@H]4[C@@H]5CC[C@H](C(C)=O)[C@@]5(C)CC[C@@H]43)C2)cc1`
result: 4.1

---

# procedure summary: MAD study, plasma pharmacokinetics
# Type: in vivo, human
# conditions: human, plasma, oral, 6 mg/day, MAD Day 1, 6 mg/day; read-out: Cmax, mean (±SD)
property label: Cmax (ng/mL)
Numbers only, in ng/mL.

query: Query: Cmax; subject: COc1ccc(CO[C@H]2CC[C@@]3(C)C(=CC[C@H]4[C@@H]5CC[C@H](C(C)=O)[C@@]5(C)CC[C@@H]43)C2)cc1 [AEF0117, 3β-(4-methoxybenzyloxy)pregn-5-en-20-one]
result: 35.9

---

# procedure summary: SAD study, plasma pharmacokinetics
# Format: in vivo
# conditions: human, oral, SAD Day 1, 0.6 mg, read-out: Cmax, mean (±SD)
property label: Cmax (ng/mL)
Answers are plain numbers, in ng/mL.

query: Query: Cmax; subject: COc1ccc(CO[C@H]2CC[C@@]3(C)C(=CC[C@H]4[C@@H]5CC[C@H](C(C)=O)[C@@]5(C)CC[C@@H]43)C2)cc1 [AEF0117, 3β-(4-methoxybenzyloxy)pregn-5-en-20-one]
result: 3.5

---

# procedure summary: Plasma and brain pharmacokinetics/toxicokinetics in rats
# Assay type: in vivo
# conditions: Sprague Dawley, rat, plasma, po, 1.6 mg/kg, rats po 1.6 mg/kg single
property label: AUC(0-t) (ng·h/mL)
Give bare numbers, in ng·h/mL.

query: Query: AUC(0-t); subject: `COc1ccc(CO[C@H]2CC[C@@]3(C)C(=CC[C@H]4[C@@H]5CC[C@H](C(C)=O)[C@@]5(C)CC[C@@H]43)C2)cc1`
result: 1060

---

# procedure summary: Plasma pharmacokinetics/toxicokinetics in dogs (oral and i.v.)
# Assay type: in vivo
# conditions: both sexes, Beagle, dog, po, 2 mg/kg, dogs po 2 mg/kg theoretical (approx. 0.5 mg/kg received), 28-day tox study
property label: Cmax (ng/mL)
Give bare numbers, in ng/mL.

query: Query: Cmax; subject: `COc1ccc(CO[C@H]2CC[C@@]3(C)C(=CC[C@H]4[C@@H]5CC[C@H](C(C)=O)[C@@]5(C)CC[C@@H]43)C2)cc1`
result: 95

---

# procedure summary: Plasma pharmacokinetics/toxicokinetics in dogs (oral and i.v.)
# Type: in vivo
# conditions: both sexes, Beagle, dog, oral, 0.7 mg kg^−1, dogs, ratio of AUC per os and i.v.
property label: bioavailability

query: Query: bioavailability; subject: `COc1ccc(CO[C@H]2CC[C@@]3(C)C(=CC[C@H]4[C@@H]5CC[C@H](C(C)=O)[C@@]5(C)CC[C@@H]43)C2)cc1`
result: ~68%

---

# procedure summary: SAD study, plasma pharmacokinetics
# Format: in vivo
# conditions: human, oral, SAD Day 1, 6 mg, read-out: tmax, median (range)
# Method: For both SAD and MAD studies, the PK parameters were calculated using standard non-compartmental methods for those with sufficient plasma concentration data.
property label: Tmax (h)
Give bare numbers, in h.

query: Query: Tmax; subject: `COc1ccc(CO[C@H]2CC[C@@]3(C)C(=CC[C@H]4[C@@H]5CC[C@H](C(C)=O)[C@@]5(C)CC[C@@H]43)C2)cc1`
result: 2

---

# procedure summary: Plasma pharmacokinetics/toxicokinetics in dogs (oral and i.v.)
# Type: in vivo
# conditions: both sexes, Beagle, dog, dogs, read-out: terminal half-life (converted)
property label: half-life
Please provide the amount together with its unit, number first.

query: Query: half-life; subject: `COc1ccc(CO[C@H]2CC[C@@]3(C)C(=CC[C@H]4[C@@H]5CC[C@H](C(C)=O)[C@@]5(C)CC[C@@H]43)C2)cc1`
result: 35.9 h

---

# procedure summary: Plasma and brain pharmacokinetics/toxicokinetics in rats
# Type: in vivo
# conditions: both sexes, Sprague Dawley SPF, rat, plasma; rats po 20 mg/kg single, 91-day tox study
# Procedure: Blood samples were obtained from catheterized animals housed in Culex cages with an automated blood sampler—a robotic system designed to facilitate the sampling of whole blood from awake and freely moving rodents. […] For all studies in rats and the 91-d toxicity study in dogs, the timepoints on days 1, 28 and 91 were: before dose and 1, 3, 5, 8 and 24 h after dose. […] In both species, only mean pre-dose plasma concentrations were calculated on day 14 for the 28-d study and on day 28 for the 91-d study. […]
property label: Tmax (h)
Numbers only, in h.

query: Query: Tmax; subject: COc1ccc(CO[C@H]2CC[C@@]3(C)C(=CC[C@H]4[C@@H]5CC[C@H](C(C)=O)[C@@]5(C)CC[C@@H]43)C2)cc1 [AEF0117, 3β-(4-methoxybenzyloxy)pregn-5-en-20-one]
result: 3

---

# procedure summary: Plasma pharmacokinetics/toxicokinetics in dogs (oral and i.v.)
# Format: in vivo
# conditions: both sexes, Beagle, dog, po, 2 mg/kg, dogs po 2 mg/kg theoretical (approx. 0.5 mg/kg received), 28-day tox study
property label: AUC(0-t) (µg·h/mL)
One number for each entry, in µg·h/mL.

query: Query: AUC(0-t); subject: COc1ccc(CO[C@H]2CC[C@@]3(C)C(=CC[C@H]4[C@@H]5CC[C@H](C(C)=O)[C@@]5(C)CC[C@@H]43)C2)cc1 [AEF0117, 3β-(4-methoxybenzyloxy)pregn-5-en-20-one]
result: 1.02

---

# procedure summary: Plasma and brain pharmacokinetics of oral AEF0117 in mice
# Type: in vivo
# conditions: both sexes, CD-1 Swiss, mouse, plasma; mice, oral, corn oil; read-out: Tmax
property label: Tmax (h)
Numbers only, in h.

query: Query: Tmax; subject: `COc1ccc(CO[C@H]2CC[C@@]3(C)C(=CC[C@H]4[C@@H]5CC[C@H](C(C)=O)[C@@]5(C)CC[C@@H]43)C2)cc1`
result: 3

---

# procedure summary: Plasma and brain pharmacokinetics of oral AEF0117 in mice
# Format: in vivo
# conditions: both sexes, CD-1 Swiss, mouse, plasma, po; mice per os; read-out: half-life
property label: half-life

query: Query: half-life; subject: `COc1ccc(CO[C@H]2CC[C@@]3(C)C(=CC[C@H]4[C@@H]5CC[C@H](C(C)=O)[C@@]5(C)CC[C@@H]43)C2)cc1`
result: 10.1 to 25.6 h

---

# procedure summary: Plasma and brain pharmacokinetics/toxicokinetics in rats
# Type: in vivo
# conditions: both sexes, Sprague Dawley, rat, plasma, po, 2 mg/kg, rats po 2 mg/kg single, 28-day tox study
property label: Cmax
Please provide the amount together with its unit, number first.

query: Query: Cmax; subject: COc1ccc(CO[C@H]2CC[C@@]3(C)C(=CC[C@H]4[C@@H]5CC[C@H](C(C)=O)[C@@]5(C)CC[C@@H]43)C2)cc1 [AEF0117, 3β-(4-methoxybenzyloxy)pregn-5-en-20-one]
result: 106 ng/mL

---

# procedure summary: Phase 2a study, plasma pharmacokinetics
# Type: in vivo, human
# conditions: human, plasma; 0.06 mg, in the range predicted from animal data
property label: Cmax

query: Query: Cmax; subject: COc1ccc(CO[C@H]2CC[C@@]3(C)C(=CC[C@H]4[C@@H]5CC[C@H](C(C)=O)[C@@]5(C)CC[C@@H]43)C2)cc1 [AEF0117, 3β-(4-methoxybenzyloxy)pregn-5-en-20-one]
result: ≥ 0.15 ng/mL
